IC50 by entry:
# System: U-87 MG
# Experimental protocol: cells
# Type: functional, cell-based, U-87MG ATCC
# Experimental context: Homo sapiens, 96 h
# Description: Cytotoxicity against human U87MG cells after 96 hrs by MTT assay
Give your result in nM as a bare value.

INSERT INTO measurements (chemical_smiles, readout, readout_units, reading) VALUES
  ('CNc1nc(C)c2cc(-c3cnc(OC)c(NS(=O)(=O)c4ccc(F)cc4F)c3)cc(O[C@@H]3CCOC3)c2n1', 'IC50', 'nM', 400),
  ('COc1ncc(-c2cc(OC3CCOCC3)c3nc(N)nc(C)c3c2)cc1NS(=O)(=O)c1ccc(F)cc1F', 'IC50', 'nM', 120),
  ('COc1ncc(-c2cc(O[C@@H]3CCOC3)c3nc(N)nc(C)c3c2)cc1NS(=O)(=O)c1ccc(F)cc1F', 'IC50', 'nM', 260);

Now, please, on to the next molecule.
IC50 reported for this molecule `CNc1nc(C)c2cc(-c3cnc(OC)c(NS(=O)(=O)c4ccc(F)cc4F)c3)cc(OC3CCOCC3)c2n1` : 250

---

Tmax by entry:
# Experimental protocol: in vivo
# Experimental context: ICR, mouse, plasma, iv, 3 mg/kg

Reference set (2 entries):
INSERT INTO assay_data (chemical_smiles, reading) VALUES
  ('COc1ncc(-c2cc(O[C@@H]3CCOC3)c3nc(N)nc(C)c3c2)cc1NS(=O)(=O)c1ccc(F)cc1F', '1.8 min'),
  ('CNc1nc(C)c2cc(-c3cnc(OC)c(NS(=O)(=O)c4ccc(F)cc4F)c3)cc(OC3CCOCC3)c2n1', '3 min');

Now, please, on to the next compound.
Tmax reported for this compound `CNc1nc(C)c2cc(-c3cnc(OC)c(NS(=O)(=O)c4ccc(F)cc4F)c3)cc(O[C@@H]3CCOC3)c2n1` : 1.8 min

---

# Target desc: Phosphatidylinositol 4,5-bisphosphate 3-kinase catalytic subunit beta isoform (Homo sapiens)
# Sequence (P42338 whole entry, canonical isoform): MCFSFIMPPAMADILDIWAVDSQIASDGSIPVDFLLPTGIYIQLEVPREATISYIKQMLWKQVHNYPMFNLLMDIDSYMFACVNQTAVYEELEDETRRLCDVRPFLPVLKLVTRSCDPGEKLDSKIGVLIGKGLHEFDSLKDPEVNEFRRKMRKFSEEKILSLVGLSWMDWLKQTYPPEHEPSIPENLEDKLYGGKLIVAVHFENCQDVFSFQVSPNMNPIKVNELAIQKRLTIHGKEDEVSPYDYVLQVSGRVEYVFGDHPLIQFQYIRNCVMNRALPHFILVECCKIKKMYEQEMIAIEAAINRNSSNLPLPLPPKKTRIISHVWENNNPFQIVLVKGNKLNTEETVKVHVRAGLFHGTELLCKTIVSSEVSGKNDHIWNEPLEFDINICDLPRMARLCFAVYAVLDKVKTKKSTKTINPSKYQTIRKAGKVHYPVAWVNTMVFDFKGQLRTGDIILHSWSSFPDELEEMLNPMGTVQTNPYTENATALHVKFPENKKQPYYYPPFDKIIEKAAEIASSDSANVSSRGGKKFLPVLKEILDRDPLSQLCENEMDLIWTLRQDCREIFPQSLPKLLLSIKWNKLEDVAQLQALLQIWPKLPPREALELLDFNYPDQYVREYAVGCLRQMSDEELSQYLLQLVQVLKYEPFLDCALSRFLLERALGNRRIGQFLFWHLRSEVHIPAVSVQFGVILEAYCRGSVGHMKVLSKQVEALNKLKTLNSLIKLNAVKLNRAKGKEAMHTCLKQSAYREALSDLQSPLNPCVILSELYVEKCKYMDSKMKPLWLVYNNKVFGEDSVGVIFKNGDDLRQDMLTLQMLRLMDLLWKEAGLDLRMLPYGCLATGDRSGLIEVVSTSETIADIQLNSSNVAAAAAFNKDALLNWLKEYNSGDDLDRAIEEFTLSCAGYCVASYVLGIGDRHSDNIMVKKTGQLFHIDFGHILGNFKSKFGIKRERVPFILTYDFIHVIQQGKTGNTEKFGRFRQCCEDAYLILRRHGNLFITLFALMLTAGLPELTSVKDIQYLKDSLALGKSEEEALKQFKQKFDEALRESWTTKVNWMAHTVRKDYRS
# Experimental protocol: Inhibition of PI3Kbeta (unknown origin) using PIP2 as substrate by ADP-Glo assay
Readout: IC50 (nM)
Give your result in nM as a bare value.

Reference set (3 entries):
INSERT INTO assay_data (chemical_smiles, reading) VALUES
  ('CNc1nc(C)c2cc(-c3cnc(OC)c(NS(=O)(=O)c4ccc(F)cc4F)c3)cc(O[C@@H]3CCOC3)c2n1', 1.1),
  ('COc1ncc(-c2cc(OC3CCOCC3)c3nc(N)nc(C)c3c2)cc1NS(=O)(=O)c1ccc(F)cc1F', 0.53),
  ('CNc1nc(C)c2cc(-c3cnc(OC)c(NS(=O)(=O)c4ccc(F)cc4F)c3)cc(OC3CCOCC3)c2n1', 1.2);

Now, please, on to the next compound.
IC50 reported for this compound `COc1ncc(-c2cc(O[C@@H]3CCOC3)c3nc(N)nc(C)c3c2)cc1NS(=O)(=O)c1ccc(F)cc1F` : 0.4

---

# System: U-251
# Experimental protocol: cells
# Assay type: functional, cell-based
# Experimental context: Homo sapiens, U-251, 96 h
# Description: Cytotoxicity against human U251 cells after 96 hrs by MTT assay
Readout: pIC50
Friendly reminder that pIC50 comes from taking -log10 of the concentration in mol/L.

Reference set (3 entries):
INSERT INTO results (chemical_smiles, readout, reading) VALUES
  ('COc1ncc(-c2cc(OC3CCOCC3)c3nc(N)nc(C)c3c2)cc1NS(=O)(=O)c1ccc(F)cc1F', 'pIC50', 6.49),
  ('CNc1nc(C)c2cc(-c3cnc(OC)c(NS(=O)(=O)c4ccc(F)cc4F)c3)cc(O[C@@H]3CCOC3)c2n1', 'pIC50', 6.34),
  ('CNc1nc(C)c2cc(-c3cnc(OC)c(NS(=O)(=O)c4ccc(F)cc4F)c3)cc(OC3CCOCC3)c2n1', 'pIC50', 6.15);

pIC50 reported for this molecule `COc1ncc(-c2cc(O[C@@H]3CCOC3)c3nc(N)nc(C)c3c2)cc1NS(=O)(=O)c1ccc(F)cc1F` : 6.85

---

# Experimental protocol: in vivo
# Experimental context: ICR, mouse, in vivo, po, 30 mg/kg
Readout: Cmax (ng/g)
Give your result in ng/g as a bare value.

Cmax reported for this molecule `COc1ncc(-c2cc(OC3CCOCC3)c3nc(N)nc(C)c3c2)cc1NS(=O)(=O)c1ccc(F)cc1F` : 93

---

# Experimental protocol: in vivo
# Experimental context: ICR, mouse, in vivo, po, 30 mg/kg
Readout: AUC(0-inf)
Put down the number, then write its unit next to it.

AUC(0-inf) reported for this compound `COc1ncc(-c2cc(OC3CCOCC3)c3nc(N)nc(C)c3c2)cc1NS(=O)(=O)c1ccc(F)cc1F` : 36200 ng·h/mL

---

# Experimental protocol: in vivo
# Experimental context: athymic BALB/c nude, mouse, in vivo, po, 10 mg/kg
Readout: AUC(0-t) at 24 h
Put down the number, then write its unit next to it.

AUC(0-t) at 24 h reported for this molecule `COc1ncc(-c2cc(OC3CCOCC3)c3nc(N)nc(C)c3c2)cc1NS(=O)(=O)c1ccc(F)cc1F` : 11800 ng·h/mL

---

# Experimental protocol: in vivo
# Experimental context: ICR, mouse, in vivo, iv, 3 mg/kg
Readout: Cmax

Cmax reported for this compound `COc1ncc(-c2cc(OC3CCOCC3)c3nc(N)nc(C)c3c2)cc1NS(=O)(=O)c1ccc(F)cc1F` : 10300 ng/mL

---

# Experimental protocol: in vivo
# Experimental context: ICR, mouse, plasma, po, 30 mg/kg
Readout: bioavailability
Put down the number, then write its unit next to it.

Reference set (2 entries):
INSERT INTO measurements (chemical_smiles, readout, reading) VALUES
  ('CNc1nc(C)c2cc(-c3cnc(OC)c(NS(=O)(=O)c4ccc(F)cc4F)c3)cc(OC3CCOCC3)c2n1', 'bioavailability', '44.4%'),
  ('CNc1nc(C)c2cc(-c3cnc(OC)c(NS(=O)(=O)c4ccc(F)cc4F)c3)cc(O[C@@H]3CCOC3)c2n1', 'bioavailability', '78.4%');

Now, please, on to the next compound.
bioavailability reported for this compound `COc1ncc(-c2cc(O[C@@H]3CCOC3)c3nc(N)nc(C)c3c2)cc1NS(=O)(=O)c1ccc(F)cc1F` : 96.2%

---

# Experimental protocol: in vivo
# Experimental context: athymic BALB/c nude, mouse, plasma, po, 10 mg/kg
Readout: AUC(0-t) at 24 h (ng·h/mL)
Give your result in ng·h/mL as a bare value.

AUC(0-t) at 24 h reported for this compound `CNc1nc(C)c2cc(-c3cnc(OC)c(NS(=O)(=O)c4ccc(F)cc4F)c3)cc(OC3CCOCC3)c2n1` : 5460

---

# Experimental protocol: in vivo
# Experimental context: ICR, mouse, plasma, iv, 3 mg/kg
# Description: Volume of distribution at steady state in ICR mouse plasma at 3 mg/kg, iv by LC/MS/MS analysis
Readout: Vd (L/kg)
Give your result in L/kg as a bare value.

Reference set (2 entries):
INSERT INTO measurements (chemical_smiles, readout, readout_units, reading) VALUES
  ('CNc1nc(C)c2cc(-c3cnc(OC)c(NS(=O)(=O)c4ccc(F)cc4F)c3)cc(O[C@@H]3CCOC3)c2n1', 'Vd', 'L/kg', 1.56),
  ('COc1ncc(-c2cc(O[C@@H]3CCOC3)c3nc(N)nc(C)c3c2)cc1NS(=O)(=O)c1ccc(F)cc1F', 'Vd', 'L/kg', 2.57);

Now, please, on to the next compound.
Vd reported for this compound `CNc1nc(C)c2cc(-c3cnc(OC)c(NS(=O)(=O)c4ccc(F)cc4F)c3)cc(OC3CCOCC3)c2n1` : 0.763

---

# Experimental protocol: in vivo
# Experimental context: ICR, mouse, plasma, po, 30 mg/kg
Cmax by entry:
Give your result in ng/mL as a bare value.

Reference set (2 entries):
INSERT INTO measurements (chemical_smiles, readout_units, reading) VALUES
  ('CNc1nc(C)c2cc(-c3cnc(OC)c(NS(=O)(=O)c4ccc(F)cc4F)c3)cc(OC3CCOCC3)c2n1', 'ng/mL', 12800),
  ('CNc1nc(C)c2cc(-c3cnc(OC)c(NS(=O)(=O)c4ccc(F)cc4F)c3)cc(O[C@@H]3CCOC3)c2n1', 'ng/mL', 5390);

Now, please, on to the next compound.
Cmax reported for this compound `COc1ncc(-c2cc(O[C@@H]3CCOC3)c3nc(N)nc(C)c3c2)cc1NS(=O)(=O)c1ccc(F)cc1F` : 8830

---

# Experimental protocol: in vivo
# Experimental context: ICR, mouse, in vivo, iv, 3 mg/kg
Readout: AUC(0-inf)

AUC(0-inf) reported for this molecule `COc1ncc(-c2cc(OC3CCOCC3)c3nc(N)nc(C)c3c2)cc1NS(=O)(=O)c1ccc(F)cc1F` : 7240 ng·h/mL

---

# Test system: HGC-27
# Experimental protocol: cells
# Format: functional, cell-based
# Experimental context: Homo sapiens, HGC-27, 96 h
# Description: Cytotoxicity against human HGC27 cells after 96 hrs by MTT assay
Readout: pIC50
Friendly reminder that pIC50 comes from taking -log10 of the concentration in mol/L.

INSERT INTO assay_data (chemical_smiles, target_desc, reading) VALUES
  ('COc1ncc(-c2cc(O[C@@H]3CCOC3)c3nc(N)nc(C)c3c2)cc1NS(=O)(=O)c1ccc(F)cc1F', 'HGC-27', 7.25);

HGC-27 pIC50 of `CNc1nc(C)c2cc(-c3cnc(OC)c(NS(=O)(=O)c4ccc(F)cc4F)c3)cc(O[C@@H]3CCOC3)c2n1` is 7.57

HGC-27 pIC50 of `CNc1nc(C)c2cc(-c3cnc(OC)c(NS(=O)(=O)c4ccc(F)cc4F)c3)cc(OC3CCOCC3)c2n1` is 7.80

HGC-27 pIC50 of `COc1ncc(-c2cc(OC3CCOCC3)c3nc(N)nc(C)c3c2)cc1NS(=O)(=O)c1ccc(F)cc1F` is 7.60

Origin of measurements: ChEMBL document CHEMBL4145625
